- TARGET_OR_SYSTEM: ETS1 (Homo sapiens, UniProt P14921 1-441)
- Sequence: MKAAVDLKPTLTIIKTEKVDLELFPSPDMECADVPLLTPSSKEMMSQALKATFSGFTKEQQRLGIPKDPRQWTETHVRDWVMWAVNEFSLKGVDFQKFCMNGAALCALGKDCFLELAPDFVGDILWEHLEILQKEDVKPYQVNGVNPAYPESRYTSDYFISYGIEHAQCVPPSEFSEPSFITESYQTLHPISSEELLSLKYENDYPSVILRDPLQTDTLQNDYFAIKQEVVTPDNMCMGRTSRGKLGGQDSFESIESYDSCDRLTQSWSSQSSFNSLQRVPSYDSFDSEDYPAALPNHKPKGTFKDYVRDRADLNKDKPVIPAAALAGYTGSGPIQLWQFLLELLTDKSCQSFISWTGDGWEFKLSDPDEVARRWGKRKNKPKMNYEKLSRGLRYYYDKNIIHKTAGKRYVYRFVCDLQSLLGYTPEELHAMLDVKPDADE
- MEASUREMENT_DESCRIPTION: custom PBM; custom protein-binding microarray; buffer, salt, pH and temperature not stated; high values mean tight binding
- RUN_CONDITIONS: dsDNA, one strand shown
The full ranking holds about 1,300 sequences; the median of “log fluorescence intensity” is about 8.3, and the highest 2% start at about 12. Many of the other results were omitted from the sample, so the highest values are more common in it than they were.
Each record here notes measured binding signal.

The following sequences have reported results that may help.
{"columns": ["SEQ_STRING", "PROPERTY_LABEL", "MEASUREMENT"],
 "data": [
  ["GGAAAAAGCCCCAGGGTAACACCGGAAGTGGGCTTAGTCTTGATTCGCTTGACGCTGCTG", "binding signal", "12.1 log fluorescence intensity"],
  ["CACAATTTTTATAGTAATGTAGCACGCGTAACTCCTGTCTTGATTCGCTTGACGCTGCTG", "binding signal", "8.41 log fluorescence intensity"],
  ["TAAAGGGAAGAGGGTTGTGGTAGTTCCGGGTATTAAGTCTTGATTCGCTTGACGCTGCTG", "binding signal", "8.6 log fluorescence intensity"],
  ["TACTGACTTATATATGGGAATGCACATGAATAGACCGTCTTGATTCGCTTGACGCTGCTG", "binding signal", "8.32 log fluorescence intensity"]
]}

Report binding signal under test system ETS1 (Homo sapiens, UniProt P14921 1-441) for `TGAAAAAGGCCCAGGGTAACACCGGAAGTGGGCTTAGTCTTGATTCGCTTGACGCTGCTG` . 11.8 log fluorescence intensity

Report measured binding signal on ETS1 (Homo sapiens, UniProt P14921 1-441); entry: `CAGCATAGGACTTCTTCCCTGAACCAATTGATAACCGTCTTGATTCGCTTGACGCTGCTG` 8.33 log fluorescence intensity

# return binding signal of `CGGAAGTGTCGTAAATGTCGGATATCCGGTTCTTCTGTCTTGATTCGCTTGACGCTGCTG` (system: ETS1 (Homo sapiens, UniProt P14921 1-441)) 11.9 log fluorescence intensity

Give binding signal for `CAGCATAGGACTTCTTCCCTGAAGCAATTGATAACGGTCTTGATTCGCTTGACGCTGCTG` tested on ETS1 (Homo sapiens, UniProt P14921 1-441). 8.34 log fluorescence intensity

Give binding signal for this entry on ETS1 (Homo sapiens, UniProt P14921 1-441): `GTGTATAGGATCCCATCCAACACACGCGTTAAAATGGTCTTGATTCGCTTGACGCTGCTG` 8.37 log fluorescence intensity

* * *

- TARGET_OR_SYSTEM: ETS1 (Homo sapiens, UniProt P14921 1-441)
- Sequence: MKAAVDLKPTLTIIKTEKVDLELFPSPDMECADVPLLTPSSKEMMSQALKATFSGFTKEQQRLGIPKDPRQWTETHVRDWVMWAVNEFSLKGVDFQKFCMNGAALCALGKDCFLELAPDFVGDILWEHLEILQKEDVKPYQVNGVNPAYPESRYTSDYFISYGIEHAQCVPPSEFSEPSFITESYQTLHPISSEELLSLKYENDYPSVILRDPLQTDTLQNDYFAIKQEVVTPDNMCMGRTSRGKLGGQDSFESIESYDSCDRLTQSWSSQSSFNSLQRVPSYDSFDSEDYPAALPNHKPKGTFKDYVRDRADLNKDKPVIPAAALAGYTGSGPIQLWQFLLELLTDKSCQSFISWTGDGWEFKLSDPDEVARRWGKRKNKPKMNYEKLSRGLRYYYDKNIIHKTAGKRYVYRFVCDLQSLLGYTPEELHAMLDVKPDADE
- MEASUREMENT_DESCRIPTION: custom PBM; custom protein-binding microarray; buffer, salt, pH and temperature not stated; high values mean tight binding
- RUN_CONDITIONS: dsDNA, one strand shown
Over roughly 1,300 sequences, “log fluorescence intensity” has its median near 8.3; the highest 2% begin near 12. The sample as a whole holds a higher share of the highest values than the screen did.
Measured binding signal values are reported for all entries that follow.

Example entries begin here.
{"columns": ["SEQ_STRING", "binding signal"],
 "data": [
  ["CAGAATAGGACTTCTTCCCTGAAGCAATTGATAACCGTCTTGATTCGCTTGACGCTGCTG", "8.33 log fluorescence intensity"],
  ["CGGAAGTGTCGTAAACGTCCGATATCCGGTTCTTCTGTCTTGATTCGCTTGACGCTGCTG", "12.2 log fluorescence intensity"],
  ["CGGAAGTGTCGTAAACGTCGGATGTCCGGTTCTTCTGTCTTGATTCGCTTGACGCTGCTG", "9.65 log fluorescence intensity"]
]}

Please find the next sequence below.
Annotate the sequence `CCGAAGTGTCGTAAACGTCGGATATCCGGTTCTTCTGTCTTGATTCGCTTGACGCTGCTG` with its measured binding signal. 12 log fluorescence intensity

* * *

- TARGET_OR_SYSTEM: ETS1 (Homo sapiens, UniProt P14921 1-441)
- Sequence: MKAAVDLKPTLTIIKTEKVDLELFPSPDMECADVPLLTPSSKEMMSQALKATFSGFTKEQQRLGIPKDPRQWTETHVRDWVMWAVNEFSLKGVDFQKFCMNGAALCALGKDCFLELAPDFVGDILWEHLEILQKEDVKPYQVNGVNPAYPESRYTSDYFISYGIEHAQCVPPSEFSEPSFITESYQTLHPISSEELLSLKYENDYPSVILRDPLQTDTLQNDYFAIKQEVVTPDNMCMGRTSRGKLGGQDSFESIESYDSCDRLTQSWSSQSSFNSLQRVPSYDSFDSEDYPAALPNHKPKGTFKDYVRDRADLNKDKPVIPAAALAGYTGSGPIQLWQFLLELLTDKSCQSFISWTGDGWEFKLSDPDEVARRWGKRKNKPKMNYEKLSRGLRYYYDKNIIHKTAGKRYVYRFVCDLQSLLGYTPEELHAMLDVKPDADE
- MEASUREMENT_DESCRIPTION: custom PBM; custom protein-binding microarray; buffer, salt, pH and temperature not stated; high values mean tight binding
- RUN_CONDITIONS: dsDNA, one strand shown
Whole data set: some 1,300 sequences, median “log fluorescence intensity” near 8.3, cut for the highest 2% near 12. For the sample, the highest values were picked, then their nearest neighbours and some sequences at random.
The following sequences are shown together with reported binding signal values.

{"columns": ["SEQ_STRING", "TARGET_OR_SYSTEM", "PROPERTY_LABEL", "MEASUREMENT"],
 "data": [
  ["GGAAAAAGGCTCAGGGTAACACCGGAAGTGGGCTTAGTCTTGATTCGCTTGACGCTGCTG", "ETS1 (Homo sapiens, UniProt P14921 1-441)", "binding signal", "11.8 log fluorescence intensity"],
  ["TCCTGCTACCAGCTCCACCCACTTCAGGCCTTGTAGGTCTTGATTCGCTTGACGCTGCTG", "ETS1 (Homo sapiens, UniProt P14921 1-441)", "binding signal", "8.42 log fluorescence intensity"],
  ["GATTAATTCCTGCCCTTATTCGCACGTGCCATAACAGTCTTGATTCGCTTGACGCTGCTG", "ETS1 (Homo sapiens, UniProt P14921 1-441)", "binding signal", "10.3 log fluorescence intensity"],
  ["CGGAAGTGTCGTAAACGACGGATATCCGGTTCTTCTGTCTTGATTCGCTTGACGCTGCTG", "ETS1 (Homo sapiens, UniProt P14921 1-441)", "binding signal", "12.4 log fluorescence intensity"],
  ["GCTGCTGCGGTGCATACCCCACCGGATGTGACCGCGGTCTTGATTCGCTTGACGCTGCTG", "ETS1 (Homo sapiens, UniProt P14921 1-441)", "binding signal", "10.5 log fluorescence intensity"],
  ["GCTGCTGCGGTGCATACCCCACCGGATGTGACCCCTGTCTTGATTCGCTTGACGCTGCTG", "ETS1 (Homo sapiens, UniProt P14921 1-441)", "binding signal", "10.1 log fluorescence intensity"],
  ["GGAAACAGGCCCAGGGTAACACCGGAAGTGGGCTTAGTCTTGATTCGCTTGACGCTGCTG", "ETS1 (Homo sapiens, UniProt P14921 1-441)", "binding signal", "11.8 log fluorescence intensity"],
  ["CAGCATAGGACTTGTTCCCTGAAGCAATTGATAACCGTCTTGATTCGCTTGACGCTGCTG", "ETS1 (Homo sapiens, UniProt P14921 1-441)", "binding signal", "8.34 log fluorescence intensity"]
]}

Recall and state the measured binding signal for `GTGTATAGGATCCCATCCAACACACGTGTTAAAATGGTCTTGATTCGCTTGACGCTGCTG` . 8.35 log fluorescence intensity

Specify binding signal for `CGGAAGTGTCGTAAACGGCGGATATCCGGTTCTTCTGTCTTGATTCGCTTGACGCTGCTG` and stop. 12.4 log fluorescence intensity

For the sequence `GATTAATTTCCGCCCTTATTCGCACGTGCCATAACAGTCTTGATTCGCTTGACGCTGCTG` , give its measured binding signal value. 13.9 log fluorescence intensity

Read the entry `GGAAAAAGGCCCAGGGTAACACGGGAAGTGGGCTTAGTCTTGATTCGCTTGACGCTGCTG` and write its reported binding signal. 8.49 log fluorescence intensity

Indicate its recorded binding signal; the sequence in question is `TCCGGCTACCAGCTTCACCCACTTCAGGCCTTGTAGGTCTTGATTCGCTTGACGCTGCTG` 8.4 log fluorescence intensity

Assign binding signal to the following record: `GGAAAAAGGCACAGGGTAACACCGGAAGTGGGCTTAGTCTTGATTCGCTTGACGCTGCTG` 12.1 log fluorescence intensity

Recall and state the measured binding signal for `AATTAATTTCTGCCCTTATTCGCACGTGCCATAACAGTCTTGATTCGCTTGACGCTGCTG` . 8.33 log fluorescence intensity

For the sequence `CACAATTTTTACAGTAATGTAGCACGCGTAAATCCTGTCTTGATTCGCTTGACGCTGCTG` , report binding signal. 8.32 log fluorescence intensity

Name the recorded binding signal of the item `TTAAGGGAAGACGGTTGTGGTAGTTCCGGGTATTAAGTCTTGATTCGCTTGACGCTGCTG` in your answer. 8.48 log fluorescence intensity
